method notes: Intrinsic clearance in human liver microsomes in presence of NADPH-regenerating system incubated over 60 mins
Format: ADME, Microsome
run conditions: read-out: CLH
measured attribute: microsomal CLint

Given O=C(O)c1cc([C@H]2CC[C@]3(CC2)OOC2(O3)C3CC4CC(C3)CC2C4)ccc1O (stereo partly drawn) , respond with its microsomal CLint.
108 µL/min/mg

Specify reported microsomal CLint for the compound shown: CS(=O)(=O)O.O=C(O)C1CN(Cc2ccc([C@H]3CC[C@]4(CC3)OOC3(O4)C4CC5CC(C4)CC3C5)cc2)C1 (stereo partly drawn)
7 µL/min/mg

----------
method notes: Intrinsic clearance in mouse liver microsomes in presence of NADPH-regenerating system incubated over 60 mins
Format: ADME, Microsome
run conditions: read-out: CLH
measured attribute: microsomal CLint (µL/min/mg)
Express it in µL/min/mg; write the number only.

Example cases with answers are listed next.
O=C(O)c1cc([C@H]2CC[C@]3(CC2)OOC2(O3)C3CC4CC(C3)CC2C4)ccc1O (stereo not given in full); 20
O=C([O-])C1CCN(CCOc2ccc([C@H]3CC[C@]4(CC3)OOC3(O4)C4CC5CC(C4)CC3C5)cc2)CC1.[Na+] (stereo not given in full); 9
CS(=O)(=O)O.O=C(O)C1CN(Cc2ccc([C@H]3CC[C@]4(CC3)OOC3(O4)C4CC5CC(C4)CC3C5)cc2)C1 (stereo not given in full); 10

Could you please provide reported microsomal CLint for O=C(O)CCCOc1ccc([C@H]2CC[C@]3(CC2)OOC2(O3)C3CC4CC(C3)CC2C4)cc1 (stereo not given in full) ? Thanks!
8

# return recorded microsomal CLint for entry CS(=O)(=O)O.O=C(O)CNCc1ccc([C@H]2CC[C@]3(CC2)OOC2(O3)C3CC4CC(C3)CC2C4)cc1 (stereo not given in full)
10

Could you please provide reported microsomal CLint for O=C(O)COc1ccc([C@H]2CC[C@]3(CC2)OOC2(O3)C3CC4CC(C3)CC2C4)cc1C(=O)O (stereo not given in full) ? Thanks!
8

State its microsomal CLint for this compound: O=C(O)c1cccc([C@H]2CC[C@]3(CC2)OOC2(O3)C3CC4CC(C3)CC2C4)c1 (stereo not given in full)
30

Tell us which microsomal CLint value is on record for CS(=O)(=O)NC(=O)COc1ccc([C@H]2CC[C@]3(CC2)OOC2(O3)C3CC4CC(C3)CC2C4)cc1 (stereo not given in full)
12

Give the reported microsomal CLint for this compound. O=C(O)COc1ccc([C@H]2CC[C@]3(CC2)OOC2(O3)C3CC4CC(C3)CC2C4)cc1Cl (stereo not given in full)
8

Reference source for all entries: ChEMBL document CHEMBL4376900
